// provenance: PubChem BioAssay AID2060497

Test system: 317291-083-R-J1-PDC complex spheroids, viability;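 further: spheroids exposed to compounds for one week before readout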
assay_explanation: Anticancer human tumor 317291-083-R-J1-PDC patient-derived soft tissue sarcoma cell line growth inhibition [GQUAD]
test_context: second compound 3.16 µM; first compound 0.1 µM; hits give low values
// NB: equality with 20% counts as Condition not met; only viability, T/C strictly below is Condition met

| compound | cat |
| --- | --- |
| Cc1cccc(N(C)C(=O)C2C(O)CCN2c2nc(C)cc(C(F)(F)F)c2C#N)c1 (stereo not given) + Cc1[nH]c2ccc(F)cc2c1-c1nc2c3cccnc3c3ncccc3c2[nH]1 | Condition not met |
| COc1cccc2c1C(=O)c1c(O)c3c(c(O)c1C2=O)CC(O)(C(=O)CO)CC3OC1CC(N)C(O)C(C)O1 (stereo not given) + CN(C)c1ccc(Nc2c3ccc(NC(=O)CCN4CCCC4)cc3nc3cc(NC(=O)CCN4CCCC4)ccc23)cc1 | Condition met |
| COc1cc(C2c3cc4c(cc3C(OC3OC5COC(C)OC5C(O)C3O)C3COC(=O)C23)OCO4)cc(OC)c1O (stereo not given) + Cc1cnc(CNC(=O)c2c(=O)c3ccc(N4CCCN(C)CC4)nc3n3c2sc2ccccc23)cn1 | Condition not met |
| C=CC(=O)N1CCN(c2nc(=O)n(-c3c(C)ccnc3C(C)C)c3nc(-c4c(O)cccc4F)c(F)cc23)C(C)C1 (stereo not given) + Cc1[nH]c2ccc(F)cc2c1-c1nc2c3cccnc3c3ncccc3c2[nH]1 | Condition not met |
| C#Cc1c(F)ccc2cc(O)cc(-c3ncc4c(N5CC6CCC(C5)N6)nc(OCC56CCCN5CC(F)C6)nc4c3F)c12 (stereo not given) + Cc1cnc(CNC(=O)c2c(=O)c3ccc(N4CCCN(C)CC4)nc3n3c2sc2ccccc23)cn1 | Condition met |
| C=CC(=O)N1CCN(c2nc(=O)n(-c3c(C)ccnc3C(C)C)c3nc(-c4c(O)cccc4F)c(F)cc23)C(C)C1 (stereo not given) + CN(C)c1ccc(Nc2c3ccc(NC(=O)CCN4CCCC4)cc3nc3cc(NC(=O)CCN4CCCC4)ccc23)cc1 | Condition not met |
| C=CCn1c(=O)c2cnc(Nc3ccc(N4CCN(C)CC4)cc3)nc2n1-c1cccc(C(C)(C)O)n1 + Cc1[nH]c2ccc(F)cc2c1-c1nc2c3cccnc3c3ncccc3c2[nH]1 | Condition met |
| O=C(NO)c1cnc(N2CCN(S(=O)(=O)c3ccc4ccccc4c3)CC2)nc1 + Cc1[nH]c2ccc(F)cc2c1-c1nc2c3cccnc3c3ncccc3c2[nH]1 | Condition met |
| CC1COCCN1c1cc(C2(S(C)(=N)=O)CC2)nc(-c2ccnc3[nH]ccc23)n1 (stereo not given) + Cc1cnc(CNC(=O)c2c(=O)c3ccc(N4CCCN(C)CC4)nc3n3c2sc2ccccc23)cn1 | Condition not met |
